B1: Homeobox protein cut-like 1, residues 548 to 629; numbered along this chain, P39880 (parent)
chain: GEEMDTAEIARQVKEQLIKHNIGQRIFGHYVLGLSQGSVSEILARPKPWNKLTVRGKEPFHKMKQFLSDEQNILALRSIQGR

- Variants of: B1
- test name: abundance fitness (aPCA) (normalised: wild type 0, dead -1); higher = more abundant; growth selection in yeast, the domain comes from the species named
- details: Homo sapiens
Labels assigned by abundance fitness range: low (below -0.7), middle (-0.7 to below -0.04), high (-0.04 or more)

Input line: For "K47E" , which abundance fitness bin applies?
Output line: high

Input line: Okay, and "M63K" ?
Output line: low

Input line: Moving on to the next variant: "I22M"
Output line: middle
